B1: Azoarcus group I ribozyme (parent)
chain: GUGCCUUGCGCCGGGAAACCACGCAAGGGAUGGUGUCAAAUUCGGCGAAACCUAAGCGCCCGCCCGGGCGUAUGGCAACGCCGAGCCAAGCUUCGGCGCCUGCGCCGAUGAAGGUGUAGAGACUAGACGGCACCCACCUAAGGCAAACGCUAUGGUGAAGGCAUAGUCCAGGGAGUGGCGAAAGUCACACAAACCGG

# Variants of: B1
# ASSAY NOTES: reverse-splicing fitness (ratio to wild type); higher = more active; in vitro selection; Mg2+ level not given
Please note: 1.0 applies when reverse-splicing fitness is 0.009 or greater, and 0.0 applies otherwise.

Example cases with answers are listed next.
A111U A120U A145G C150G ... 1.0
C82G A111U A120U A145G C150U C169U U176A ... 0.0
C82A A111C A145C C150G U176C ... 1.0
A145C C150G C169A U176G ... 0.0
C82G A111C A120G A145C C169G U176C ... 1.0
A111C A120U C169A U176C ... 0.0
A111C A120C A145C C150G C169A ... 0.0
C82A A120C A145C C169U ... 1.0
C82U A111C A145C C150G U176C ... 1.0
C82U A111U A120U C169G U176C ... 0.0

Could you verify whether the entry C82A A111G A120C A145G C150G C169U U176G shows reverse-splicing fitness of no less than 0.009?
0.0

Moving on to the next variant: C82U A111U A120G C169U
0.0

Moving on to the next variant: A111U A145U U176C
1.0

Moving on to the next variant: C82A A145U C169A U176A
1.0
